This collection of values is drawn from the NIST ThermoML archive (doi:10.1021/je700088n).

Assay: Molar enthalpy of transition or fusion
Settings: Crystal; DSC
Decision: Molar enthalpy of transition or fusion beneath 5 kcal/mol gives criterion met; Molar enthalpy of transition or fusion meeting or exceeding 5 kcal/mol gives criterion not met.

Please review the entries below; each comes with its answer.
smiles_structure=Cc1ccc2cc(C)ccc2c1 class="criterion not met"
smiles_structure=Cc1ccc(C)c2ccccc12 class="criterion met"
smiles_structure=Cc1cccc2cccc(C)c12 class="criterion met"
smiles_structure=Cc1ccc2ccc(C)cc2c1 class="criterion not met"
smiles_structure=Cc1cc2ccccc2cc1C class="criterion not met"
smiles_structure=Cc1ccc2c(C)cccc2c1 class="criterion met"

Let us examine a further case.
Request: Field: below-cutoff. Rule: recorded Molar enthalpy of transition or fusion strictly less than 5 kcal/mol. Subject: Cc1cccc2c(C)cccc12
Result: criterion met

----------
The entries below are paired with their reported Normal melting temperature.
Details: Crystal; DTA
# output: bare number, implied unit °C

smiles_structure=Cc1cccc2c(C)cccc12 assay_readout="Normal melting temperature" unit_tag=°C recorded_measurement=82.00
smiles_structure=Cc1cccc2cccc(C)c12 assay_readout="Normal melting temperature" unit_tag=°C recorded_measurement=65.00
smiles_structure=Cc1cc2ccccc2cc1C assay_readout="Normal melting temperature" unit_tag=°C recorded_measurement=104.00
smiles_structure=Cc1ccc2c(C)cccc2c1 assay_readout="Normal melting temperature" unit_tag=°C recorded_measurement=-16.20
smiles_structure=Cc1ccc2ccccc2c1 assay_readout="Normal melting temperature" unit_tag=°C recorded_measurement=34.70
smiles_structure=Cc1cccc2ccccc12 assay_readout="Normal melting temperature" unit_tag=°C recorded_measurement=-30.9
smiles_structure=Cc1ccc2ccc(C)cc2c1 assay_readout="Normal melting temperature" unit_tag=°C recorded_measurement=97.00
smiles_structure=Cc1ccc(C)c2ccccc12 assay_readout="Normal melting temperature" unit_tag=°C recorded_measurement=6.00

With those in mind, consider the next molecule.
Request: Requested field: Normal melting temperature. Item: Cc1ccc2cc(C)ccc2c1
Result: 112.00
